- procedure summary: NCI Yeast Anticancer Drug Screen. Data for the rad50 strain (AID 155);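 further: 0% = growth of vehicle-only cultures of the same strain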
- condition info: S. cerevisiae rad50 strain growth inhibition; at 50.0 µM
- Experimental: Growth inhibition of yeast strains with defined genetic alterations is measured as a screen for potential anti-cancer activity. Selected strains with alterations in DNA damage repair or cell cycle control were exposed to compounds and growth inhibition was measured relative to vehicle treated controls. The strain used in this assay is rad50
About 79,000 compounds went through this panel and 15% of them were active in at least one assay; those are over-represented in the sample as a whole. The source made the active and inactive calls. No stated cut-off is given here; in the data, active means growth inhibition above about 70%; inactive means the rest.
Outcomes: 1.0 = active, 0.0 = inactive

| compound | class |
| --- | --- |
| Cc1ccc(P(=O)(O)O)c([N+](=O)[O-])c1 | 0.0 |
| COc1cc(OC(=O)/C=C2/CCC(=O)O2)c2c(c1)OC1OC(=O)CC21 (stereo not given) | 0.0 |
| Cc1nc(N)c(N2CCN(CN)CC2)c(=O)[nH]1 | 0.0 |
| c1ccc(SCCCCSc2ccccc2)cc1 | 0.0 |
| NNS(=O)(=O)c1ccc(/C=C2\NC(=O)NC2=O)cc1 | 0.0 |
| CC(=O)OC(C)C1(C)CCC2CCCC(C)(C)C2C1 (stereo not given) | 0.0 |
| CC(CO)NCc1ccccc1 (stereo not given) | 0.0 |
| N#Cc1nc(CC(=O)/C=C/c2ccccc2)c(CC(=O)/C=C/c2ccccc2)nc1C#N | 0.0 |
| O=[N+]([O-])c1cccc(C2CC(c3ccccc3)=NN2c2ccccc2)c1 (stereo not given) | 0.0 |
| Clc1cccc(NNc2cccc(Cl)c2)c1 | 0.0 |
| C=CCOCC(O)CO (stereo not given) | 0.0 |
| CCCCCCCCCSc1nc2ccc(N=Cc3ccccc3O)cc2s1 | 0.0 |
| c1ccc(C[S][Sn]([c]2ccccc2)([c]2ccccc2)[c]2ccccc2)cc1 | 1.0 |
| N#Cc1c(-c2ccc(Cl)cc2)c(C#N)c(=O)n(NS(=O)(=O)c2ccccc2)c1O | 0.0 |
| COc1ccc(-c2nnc3n(C)c4ccccc4n3c2=O)cc1 | 0.0 |
| O=C(CCN1CCCC1)Nc1ccc2sc3ccccc3c(=O)c2n1 | 0.0 |
| O/N=C/c1cccc[n+]1Cc1ccccc1 | 0.0 |
| Cc1ccc(OCC(=O)O)cc1C | 0.0 |
| BrCCCCCOc1ccc(-c2c3ccccc3c(-c3ccc(OCCCCCBr)cc3)c3ccccc23)cc1 | 0.0 |
| Cc1cccc(C2ON=C(c3ccccc3)N2C23CC4CC(CC(C4)C2)C3)c1 (stereo not given) | 0.0 |
| O=C(Nc1ccc(Cl)c(Cl)c1)Oc1ccc(Cl)cc1C(=O)Nc1ccccc1 | 0.0 |
| CCN(CC)c1cc2c(cc1Br)-c1ccccc1C2=O | 0.0 |
| COc1ccc(CNc2cnc3cc(N)ccc3n2)cc1OC | 0.0 |
| OC1c2ccccc2CC12Cc1ccccc1C2 (stereo not given) | 0.0 |
| Nc1cc([N+](=O)[O-])ccc1N1C(=O)CCCC1=O | 0.0 |

----------
- procedure summary: NCI Yeast Anticancer Drug Screen. Data for the cln2 rad14 strain (AID 165);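 further: 0% = growth equal to vehicle treated cultures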
- condition info: S. cerevisiae cln2 rad14 strain, at 50.0 µM
Compounds without any hit were thinned out: in the full panel of roughly 79,000, 15% have a hit. Activity calls are given as the source filed them. Rule as the data show it: active = growth inhibition above about 70%; inactive = the rest.
Outcomes: Yes for active, No for inactive

| molecule | class |
| --- | --- |
| Clc1ccc2cc(Cl)c3ccccc3c2c1 | No |
| COc1cccc(C(=O)NCCNCCNC(=O)c2cccc(OC)c2OC)c1OC | No |
| CCOC(=O)Nc1cc(Cl)c2nnn(C(=O)OCC)c2n1 | Yes |
| COc1cc2c(cc1OC)C(=O)C1(C2)[C@H](c2ccccc2)C2C(=O)c3cc(OC)c(OC)cc3C2[C@H]1c1ccccc1 (stereo partly specified) | No |
| CC(=O)/C(N=Nc1ccccc1SCCC#N)=C(\C)O | No |
| COc1ccccc1N1C(=O)/C(=N\OC(=O)c2c(-c3c(Cl)cccc3Cl)noc2C)SC1=S | No |
| CC(=O)OC1COC(N2C(=O)C(=O)c3ccccc32)C(OC(C)=O)C1OC(C)=O (stereo unspecified) | No |
| O=C1NC(=O)C(c2ccccc2)(C2CCOCC2)N1 (stereo unspecified) | No |
| COc1cc2c(c(OC)c1OC)CCCC2=O | No |
| C=CCOc1ccc(Cl)cc1Br | No |
| CC(=O)OC1OC(C)C(OC(=O)c2ccccc2)C1OC(C)=O (stereo unspecified) | No |

----------
- procedure summary: NCI Yeast Anticancer Drug Screen. Data for the cln2 rad14 strain (AID 165);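 further: 0% = growth equal to vehicle treated cultures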
- condition info: S. cerevisiae cln2 rad14 strain, at 50.0 µM, stronger effect = higher value
Compounds without any hit were thinned out: in the full panel of roughly 79,000, 15% have a hit. Activity calls are given as the source filed them. No stated cut-off is given here; in the data, active means growth inhibition above about 70%; inactive means the rest.
Below, each entry is listed alongside its reported growth inhibition.

| compound | growth inhibition |
| --- | --- |
| CC1=CC(=O)OC1=O | 8.9% (inactive) |
| O=C(O)c1cccc(Cl)c1-c1c(Cl)cccc1C(=O)O | 11.8% (inactive) |
| O=S(=O)(Nc1ccc(Cl)cc1)c1ccc(F)cc1 | 11.9% (inactive) |
| COc1cc(C(=O)NC2CCc3cc(OC)c(OC)c(OC)c3-c3ccc(OC)c(=O)cc32)cc(OC)c1OC (stereo unspecified) | 12.2% (inactive) |
| CCN(CC)c1ccc(/C=N/NC(=O)NN)cc1 | -13.1% (inactive) |
| O=C1c2ccccc2C(=O)C1(Cl)C(Cl)c1ccc([N+](=O)[O-])cc1 (stereo unspecified) | 99.1% (active) |

----------
- procedure summary: NCI Yeast Anticancer Drug Screen. Data for the bub3 strain (AID 167)
- condition info: S. cerevisiae bub3 mutant strain, at 50.0 µM, stronger effect = higher value
The panel holds about 79,000 compounds, 15% with a hit somewhere; the sample as a whole holds those more often.
Below, each entry is listed alongside its reported growth inhibition.

| compound | growth inhibition / % |
| --- | --- |
| CCOC(=O)C(CC(Nc1ccccc1)(c1ccccc1)c1ccccc1)c1ccccc1 (centres undefined) | -3.45 |
| CCC(C)C(C)O (centres undefined) | -12.8 |
| CCN(CC)c1cc2oc(=O)cc(C)c2cc1NC(=O)c1cc([N+](=O)[O-])cc([N+](=O)[O-])c1 | 0 |
| CN=[N+]([O-])c1ccccc1 | 10.9 |
| C1=COC(C2NCCCN2)CC1 (centres undefined) | -26.5 |
| COc1cc(C=O)ccc1OC(=O)Nc1cccc(Cl)c1C | 37.2 |
| CC(O)C(NC(=O)Nc1ncnc2nc[nH]c12)C(=O)O (centres undefined) | -14.2 |
| O=[N+]([O-])c1ccc(/C(CBr)=N/N2CCCCCC2)cc1 | -15.8 |
| CCCCCCCCCCCCCCCCCC(=O)c1ccc(OC)c(OC)c1 | -24.4 |
| COc1cc(C2c3cc4c(c(OC(=O)c5ccccn5)c3CC3COC(=O)C32)OCO4)cc(OC)c1OC (centres undefined) | 13 |
| COc1ccc2c(c1)CCC(c1nc3ccc(C)cc3[nH]c1=O)C2=O (centres undefined) | -4.65 |
| Nc1ccc(P(=O)(Nc2ccc3ccccc3c2)Nc2ccc3ccccc3c2)cc1 | 83.2 |
| Cc1ccc2c(c1)[nH]c(=S)n2/C=C1\C(=O)Oc2ccccc2C1=O | -42 |
| OCC1=CCCCC1 | -14.5 |
| Cc1c(Cl)cccc1NC(=O)C1CC(Br)C(Br)CC1C(=O)O (centres undefined) | 9.35 |
| COC(=O)c1c(C(=O)c2ccccc2)nnn1-c1cccc(C(F)(F)F)c1 | -28.7 |
| O=C1CCCC(c2ccccc2)O1 (centres undefined) | -27.4 |
| CC1=CC(=O)C(CCC#N)C(C)(C)C1 (centres undefined) | 5.85 |
| COc1cc(O)c2c(=O)c(O)c(-c3ccc(O)c(O)c3)oc2c1 | -11.8 |
| Cc1nc[nH]c1[N+](=O)[O-] | -0.85 |
| CC(/C=N\Nc1ccc([N+](=O)[O-])cc1)=N/N=C(N)N | 3.1 |
| Cc1ccc(N=Nc2sc(N)nc2-c2ccc(Cl)cc2)cc1 | 17.1 |
| CN(C)CC1=C(O)c2ccccc2C(=O)C1=O | 31.6 |
| O=C([O-])C(=O)[N-]CCC[N-]C(=O)C(=O)[N-]CCC[N-]C(=O)C(=O)[O-].[Cu+2].[Cu+2].[Na+] | -7.7 |

----------
Below, each entry is listed alongside its reported growth inhibition.
- procedure summary: NCI Yeast Anticancer Drug Screen. Data for the bub3 strain (AID 167)
- condition info: S. cerevisiae bub3 mutant strain, at 50.0 µM, stronger effect = higher value
This is part of a sample that, as a whole, favours compounds with a hit. Of some 79,000 tested, about 15% had one in any assay.

| compound | unit spec | growth inhibition |
| --- | --- | --- |
| CNC(=O)SCC(NC(=O)CCC(N)C(=O)O)C(=O)NCC(=O)O (stereo not drawn) | % | 18.4 |
| CC1CNC(=O)NC1=O.O.O.[NH2-].[NH2-].[Pt+4] (stereo not drawn) | % | -5.95 |
| CC(C)(C)C(=O)Nc1ccccc1 | % | -12.4 |
| O=c1cnc(=O)[nH][nH]1 | % | 5.7 |
| COC(=O)CC1(C(=O)OC)Nc2ccccc2C(=O)O1 (stereo not drawn) | % | -11.1 |
| CCCCOB(OCCCC)Oc1c(C(C)(C)C)cccc1C(C)(C)C | % | -5.65 |
| O=C1c2cc3c(cc2CC12Cc1cc4c(cc1C2)CCC4)CCC3 | % | -3 |
| Cc1ccc(N=Nc2ccc([N+](=O)[O-])cc2)c([N+](=O)[O-])c1 | % | 18.4 |
| COC1=CC(=O)C(C(C)=O)=C(O)C1=O | % | -5.6 |
| Nc1[nH]c(=O)nc2snnc12 | % | 6.1 |
| CC(C)CCCC(C)CCCl (stereo not drawn) | % | 3.2 |
| NC(=O)[C@H]1CC2CCC1C2 (stereo partly drawn) | % | 11.3 |
| CCOC(=O)O/C(C)=C\c1ccccc1Cl | % | -5.85 |
